Assay: Selectivity index, ratio of cytotoxicity against human SKOV3 cells to IC50 for Cryptococcus neoformans ATCC 90113
Type: toxicity, cell-based, SK-OV-3
Settings: read-out: Selectivity Index
recordedMetric: selectivity ratio

Below, each entry is followed by its recorded selectivity ratio result.
structureSmilesString: N=C(N)NCCC[C@H](NC(=O)[C@@H](N)Cc1c[nH]c(-c2ccc(-c3ccccc3)cc2)n1)C(=O)NCc1ccccc1
selectivity ratio: > 50

structureSmilesString: N=C(N)NCCC[C@H](NC(=O)[C@@H](N)Cc1c[nH]c(-c2cccc3ccccc23)n1)C(=O)NCc1ccccc1
selectivity ratio: > 16.1

structureSmilesString: Cc1ccc(-c2nc(C[C@H](N)C(=O)N[C@@H](CCCNC(=N)N)C(=O)NCc3ccccc3)c[nH]2)cc1
selectivity ratio: > 4.7

structureSmilesString: CC(C)(C)OC(=O)N[C@@H](Cc1c[nH]c(-c2cccc3ccccc23)n1)C(=O)N[C@@H](CCCNC(=N)N)C(=O)NCc1ccccc1
selectivity ratio: > 3.6

structureSmilesString: N=C(N)NCCC[C@H](NC(=O)[C@@H](N)Cc1c[nH]c(-c2ccccc2)n1)C(=O)NCc1ccccc1
selectivity ratio: > 8.2

Dear colleague, could you please provide selectivity ratio for the molecules listed below?
1. COC(=O)[C@H](CCCNC(=N)N)NC(=O)[C@@H](N)Cc1c[nH]c(-c2cccc3ccccc23)n1
2. CC(C)(C)OC(=O)N[C@@H](Cc1c[nH]c(-c2ccc(-c3ccccc3)cc2)n1)C(=O)N[C@@H](CCCNC(=N)N)C(=O)NCc1ccccc1

["> 7.3", "> 9.2"]
